Test system: IGF1R
conditions-used: concentration: 1 μM,replicates: in singlicate; n = 1;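 also: KINOMEscan kinase panel screen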
readout-label: %Inh (%)
The response must be a number in % with no trailing unit.

Query :: Item: "Cn1cc(-c2cccc3c(N)c(C(N)=O)nnc23)cn1" Test system: IGF1R Read-out: %Inh Value: ?
Result :: 0

Query :: Requested read-out %Inh, target or system IGF1R, entry CSc1nccc(-c2c(-c3ccc(F)cc3)ncn2CCCN2CCOCC2)n1.Cl [SB-217146]
Result :: 0

Query :: API: value(readout=%Inh, system=IGF1R) for record COC(=O)c1cccc(NC(=O)NC2CCN(c3ccnc(NCc4ccc(F)cc4)n3)CC2)c1 [GSK1379860]
Result :: 0

Query :: Provide value of %Inh for this record tested with IGF1R: "O=C1NCCc2[nH]c(-c3ccncc3)cc21"
Result :: 0

Query :: Recorded %Inh for CC(C(=O)NC1CCN(c2ccnc(Nc3ccc(F)cc3)n2)C1)c1ccc(Cl)cc1 (stereo not drawn) [GSK1379713] with IGF1R, please?
Result :: 0

Query :: Query for IGF1R: what %Inh does the record show for NC(=O)Nc1sc(-c2ccc(F)cc2)cc1C(N)=O [GW789449] ?
Result :: 2

---

Tested on: ZAK
conditions-used: concentration: 1 μM,replicates: in singlicate; n = 1
Listing of recorded %Inh by entry.
Respond numerically; units are % and should not be typed.

compound=COC(=O)Nc1nc2cc(Oc3ccc(NC(=O)Nc4cc(C(F)(F)F)ccc4Cl)cc3)ccc2[nH]1.Cl endpoint_result=98.4
compound=FC(F)(F)c1cc(Br)cc(Nc2nccc(-c3cnn4ncccc34)n2)c1 endpoint_result=16
compound=Cc1n[nH]c2cc(Nc3ccnc(Nc4cccc(CN5CCOCC5)c4)n3)ccc12 endpoint_result=14
compound="CC(C(=O)NC1CCN(c2ccnc(Nc3ccc(F)cc3)n2)C1)c1ccc(Cl)cc1 (centres unmarked)" endpoint_result=5
compound=O=C(Nc1cccc(Oc2ccc3nccn3n2)c1)Nc1cccc(C(F)(F)F)c1 endpoint_result=97.8
compound=CN(c1cccc(CNc2nc(Nc3ccc4c(c3)CC(=O)N4)ncc2C(F)(F)F)c1)S(C)(=O)=O endpoint_result=0
compound=CC(C)S(=O)(=O)N1CCN(Cc2ccc3c(c2)nc(NC(=O)c2ccsc2)n3C[C@H](O)c2ccccc2)CC1 endpoint_result=1
compound=Cl.Cl.NC[C@H](CC1CCCCC1)NC(=O)c1ccc(-c2ccnc3[nH]ccc23)s1 endpoint_result=0

Query :: # %Inh lookup, item "CCN1CCN(CCCC(=O)Nc2n[nH]c3nc(-c4ccc(O)cc4)c(Br)cc23)CC1"
Result :: 0

Query :: Dear colleague, I am looking for the recorded %Inh of the following compound: "CN(c1ccc2c(c1)nc(NCc1ccc(F)cc1)n2C)c1ccnc(Nc2ccc(CS(C)(=O)=O)cc2)n1.Cl"
Result :: 41

Query :: Query (compound): "CNC(=O)c1ccccc1Nc1nc(Nc2cccc(CS(C)(=O)=O)c2)ncc1C.O=CO" ; field requested: %Inh
Result :: 0

Query :: # input compound: "CS(=O)(=O)c1cccc(CNc2nc(Nc3ccc4c(c3)[C@@H]3C[C@@H]4CNC3=O)ncc2C(F)(F)F)c1" ; wanted: its %Inh
Result :: 0

Query :: Looking for the measured %Inh of "COc1cc2ncn(-c3cc(OCC4CCCCC4)c(C(N)=O)s3)c2cc1OC" , can you help?
Result :: 7

Query :: Name the recorded %Inh for "O=C(NOCC1CC1)c1cc(Br)c(F)c(F)c1Nc1ccc(I)cc1Cl" .
Result :: 0

Query :: Item "Cl.c1ccc(Oc2ccc(Nc3ccnc4cc(-c5ccc(CN6CCNCC6)o5)ccc34)cc2)nc1" has what recorded %Inh?
Result :: 60

Query :: Which %Inh value belongs to "NC(=O)Nc1sc(-c2ccc(F)cc2)cc1C(N)=O" ?
Result :: 21

Query :: Look up %Inh: "C[C@@H](Oc1cc(-n2cnc3cc(-c4ccncc4)ccc32)sc1C(N)=O)c1ccccc1Cl"
Result :: 0
